tgt: BRAF G466V (Homo sapiens, UniProt P15056, G466V)
Construct: Horizon Discovery (HCT-116 BRAF−/− cells); host or cells: HCT-116 BRAF−/− cells, clone 8, lentiviral transduction
Sequence (P15056 whole entry G466V): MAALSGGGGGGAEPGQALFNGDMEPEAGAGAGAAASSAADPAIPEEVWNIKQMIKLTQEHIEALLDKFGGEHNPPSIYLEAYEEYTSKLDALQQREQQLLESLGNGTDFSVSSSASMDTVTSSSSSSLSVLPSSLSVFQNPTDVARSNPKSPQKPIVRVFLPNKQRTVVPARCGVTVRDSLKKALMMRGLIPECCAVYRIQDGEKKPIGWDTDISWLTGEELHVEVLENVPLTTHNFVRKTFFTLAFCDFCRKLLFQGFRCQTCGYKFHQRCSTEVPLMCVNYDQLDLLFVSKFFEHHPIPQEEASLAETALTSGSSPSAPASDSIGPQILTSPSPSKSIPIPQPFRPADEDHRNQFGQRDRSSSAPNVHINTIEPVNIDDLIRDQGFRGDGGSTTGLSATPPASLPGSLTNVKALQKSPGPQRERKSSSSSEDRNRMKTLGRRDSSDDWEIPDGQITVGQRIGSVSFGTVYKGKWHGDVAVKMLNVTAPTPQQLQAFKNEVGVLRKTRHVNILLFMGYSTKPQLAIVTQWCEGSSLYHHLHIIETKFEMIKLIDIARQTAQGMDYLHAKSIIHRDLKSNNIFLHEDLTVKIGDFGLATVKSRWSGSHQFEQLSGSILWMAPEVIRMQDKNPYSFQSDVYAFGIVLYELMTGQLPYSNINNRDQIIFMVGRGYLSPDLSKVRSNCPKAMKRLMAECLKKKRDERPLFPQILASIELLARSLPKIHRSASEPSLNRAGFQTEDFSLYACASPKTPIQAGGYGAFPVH
test.details: BRAF HiBiT degradation assay, C-terminal HiBiT-tagged BRAF G466V overexpressed in HCT-116 BRAF−/− cells (clone 8), Nano-Glo HiBiT Lytic assay
Format: cell-based
particulars: BRAF G466V; DC50 at 50%: fitted conc. at Y=50
Reported values of DC50 for individual entries

molecule	DC50
CCCS(=O)(=O)Nc1cccc(-c2nc(C3CCC4(CC3)CN(C(=O)CCCCCc3ccc5c(c3)C(=O)N(C3CCC(=O)NC3=O)C5)C4)sc2-c2ccnc(N)n2)c1F (racemic)	10 to 50 nM
CCN(C)S(=O)(=O)Nc1cccc(-c2nc(C)sc2-c2ccnc(Nc3ccc(N4CCN(CC5CCN(c6ccc([C@H]7CCC(=O)NC7=O)cc6)CC5)CC4)cn3)n2)c1F	50 to 500 nM

// moving on: another record for DC50
Item CCCS(=O)(=O)Nc1cccc(-c2nc(C(C)(C)C)sc2-c2ccnc(Nc3ccc(C4CCN(C(=O)C[C@H]5CCN(c6ccc(C7CCC(=O)NC7=O)cc6)C5)CC4)cc3)n2)c1F (mixture of isomers) has what recorded DC50?
> 500 nM

---

# DC50 per entry
tgt: BRAF G469A (Homo sapiens, UniProt P15056, G469A)
Construct: Horizon Discovery (HCT-116 BRAF−/− cells); host or cells: HCT-116 BRAF−/− cells, clone 34, lentiviral transduction
Sequence (P15056 whole entry G469A): as the sequence (P15056 whole entry G466V) above, with V466G, G469A counted along it
test.details: BRAF HiBiT degradation assay, C-terminal HiBiT-tagged BRAF G469A overexpressed in HCT-116 BRAF−/− cells (clone 34), Nano-Glo HiBiT Lytic assay
Format: cell-based
particulars: Class 2; BRAF G469A; DC50 at 50%: fitted conc. at Y=50

compound	measured.property	endpoint.value
CCCS(=O)(=O)Nc1cccc(-c2nc(C3CCN(C(=O)C4CCN(C(=O)CC5CCN(c6ccc(C7CCC(=O)NC7=O)cn6)CC5)CC4)CC3)sc2-c2ccnc(N)n2)c1F (racemic)	DC50	> 500 nM

Reported DC50 for CCN(C)S(=O)(=O)Nc1cccc(-c2nc(C)sc2-c2ccnc(Nc3ccc(N4CCN(CC5(F)CCN(c6ccc(C7CCC(=O)NC7=O)cc6)CC5)CC4)cn3)n2)c1F (racemic) : what is it?
< 10 nM

Name the reported DC50 value associated with the compound CCCS(=O)(=O)Nc1cccc(-c2nc(C(C)(C)C)sc2-c2ccnc(Nc3cccc(OC4CCN(C(=O)[C@@H]5CCN(c6ccc(C7CCC(=O)NC7=O)cn6)C5)CC4)c3)n2)c1F (mixture of isomers)
> 500 nM

Form field: reported DC50 of "CCCS(=O)(=O)Nc1cccc(-c2nc(C(C)(C)C)sc2-c2ccnc(NCC(C)(C)C3CCN(CC4CCN(c5ccc(C(=O)N[C@H]6CCC(=O)NC6=O)nc5)CC4)CC3)n2)c1F"
> 500 nM

State the recorded DC50 for this entry: CCCS(=O)(=O)Nc1cccc(-c2nc(C(C)(C)C)sc2-c2ccnc(Nc3ccc(N4CCN(C(=O)[C@@H]5CCN(c6ccc([C@H]7CCC(=O)NC7=O)cn6)C5)CC4)c(F)c3)n2)c1F (racemic)
> 500 nM
